# System name: human plasma-derived FIXa (Haematologic Technologies Inc) (human, UniProt P00740 47-191; P00740 227-461)
# Sequence (P00740 47-191, chain 1 of 2): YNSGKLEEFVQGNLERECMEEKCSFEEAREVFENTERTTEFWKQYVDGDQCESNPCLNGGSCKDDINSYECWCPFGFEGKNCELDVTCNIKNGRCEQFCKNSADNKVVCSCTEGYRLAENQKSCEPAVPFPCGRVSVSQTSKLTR
# Sequence (P00740 227-461, chain 2 of 2): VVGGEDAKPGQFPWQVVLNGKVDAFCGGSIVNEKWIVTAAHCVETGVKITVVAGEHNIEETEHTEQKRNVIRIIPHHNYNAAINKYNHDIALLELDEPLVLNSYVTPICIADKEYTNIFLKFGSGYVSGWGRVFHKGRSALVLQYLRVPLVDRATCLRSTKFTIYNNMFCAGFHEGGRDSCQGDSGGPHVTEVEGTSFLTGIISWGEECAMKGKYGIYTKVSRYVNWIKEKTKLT
# Assay explanation: cell-based or functional assay

>  <Binder>
mAb1-4071 (antibody, V domains shown) VH: EVQLVQSGAEVKKPGESLRISCKGSGYSFTPYWIGWVRQMPGKGLEWMGMIDPSDSYTDYGPSFRGHVTISADKSISTAYLQWSSLKASDTAMYYCARVRIREGAFDIWGQGTMVTVSS VL: DIVMTQSPLSLPVTPGEPASISCRSSQRLLHSTGYNYLNWYLQKPGQSPQLLIYLGSRRASGVPDRFSGSGSGTDFTLKISRVEAEDVGVYYCMQALHIPYTFGQGTKLEIK

>  <FXa generation rate at 25 nM mAb, pM/min>
131

$$$$
>  <Binder>
mAb1-4861 (antibody, V domains shown) VH: EVQLVESGGGLVQPGRSLKLSCAASGFTFDDYAMHWVRQVPGKGLEWVSGISWNGDNIGYVDSVKGRFTISRDNAKNSLYLQLNSLRAEDTALYYCVKSYGSGSFYNAFDSWGQGTLVTVSS VL: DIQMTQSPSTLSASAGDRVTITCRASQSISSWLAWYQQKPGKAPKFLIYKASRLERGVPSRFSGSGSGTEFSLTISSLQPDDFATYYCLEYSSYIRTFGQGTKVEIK

>  <FXa generation rate at 25 nM mAb, pM/min>
382

$$$$
>  <Binder>
mAb1-4857 (antibody, V domains shown) VH: EVQLVESGGGLVQPGRSLKLSCAASGFTFDDYAMHWVRQVPGKGLEWVSGISWRGDIIGYVDSVKGRFTISRDNAKNSLYLQLNSLRAEDTALYYCVKSYGSGSFYNAFDSWGQGTLVTVSS VL: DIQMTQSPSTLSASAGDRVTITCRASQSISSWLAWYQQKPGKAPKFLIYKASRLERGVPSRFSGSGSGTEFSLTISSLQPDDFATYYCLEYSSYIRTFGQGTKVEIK

>  <FXa generation rate at 25 nM mAb, pM/min>
1000

$$$$
